Hello, the source for this data is patent US8193228B2, in case you need it.

- TESTED SYSTEM: human BRS-3 (Homo sapiens, UniProt P32247)
- Construct: expressed in transfected cells
- Sequence (P32247 whole entry): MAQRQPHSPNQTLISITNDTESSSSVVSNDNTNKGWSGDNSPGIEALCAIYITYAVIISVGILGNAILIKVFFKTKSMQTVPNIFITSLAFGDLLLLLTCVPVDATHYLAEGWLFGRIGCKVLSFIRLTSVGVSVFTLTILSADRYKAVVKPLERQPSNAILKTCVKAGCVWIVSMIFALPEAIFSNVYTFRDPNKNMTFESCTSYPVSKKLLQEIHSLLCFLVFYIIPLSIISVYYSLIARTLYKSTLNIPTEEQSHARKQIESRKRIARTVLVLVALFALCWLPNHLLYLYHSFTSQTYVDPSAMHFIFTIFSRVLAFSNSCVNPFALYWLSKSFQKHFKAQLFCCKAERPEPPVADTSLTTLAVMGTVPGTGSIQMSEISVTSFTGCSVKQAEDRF
- ASSAY DETAILS: BRS-3 receptor binding assay (radioligand filtration)
- EXPERIMENTAL PARAMETERS: selected compounds; read-out: BRS-3 binding IC50
- Experimental: Dissociated cells were collected by centrifuging at 1000 rpm for 10 minutes. […] The filters were washed five times with ice-cold washing buffer (1×PBS without Mg^++ and Ca^++). The radioactivity was determined by adding 30 μl of microscintillant/well after each plate was dried at room temperature overnight or placed at 50° C. for 1 hr. […] A Packard Top Count was used to read the filter plates. […]
READOUT TYPE: pIC50
In textbook form, pIC50 equals minus log to base ten of the concentration in mol/L.

Some compounds with recorded pIC50:
| COMPOUND | TESTED SYSTEM | READOUT TYPE | RECORDED MEASUREMENT |
| --- | --- | --- | --- |
| CC(C)(C)Cc1c[nH]c(CC(O)(c2ccc(-c3ccc(F)cn3)cc2)C(F)(F)F)n1 (stereo not drawn) | human BRS-3 (Homo sapiens, UniProt P32247) | pIC50 | 7.74 |
| CC(O)(Cc1nc(CC2(C(F)(F)F)CC2)c[nH]1)c1ccc(-c2ccc(F)cn2)cc1 (stereo not drawn) | human BRS-3 (Homo sapiens, UniProt P32247) | pIC50 | 7.27 |

Moving on to the next compound.
q: Annotate the compound CC(C)(C)Cc1c[nH]c(CC(O)(c2ccc(-c3ccc(F)cn3)cc2)C(F)F)n1 (stereo not drawn) with its measured pIC50.
a: 7.82
